tgt: human MMP-12 (Homo sapiens)
Sequence (P39900 106-470): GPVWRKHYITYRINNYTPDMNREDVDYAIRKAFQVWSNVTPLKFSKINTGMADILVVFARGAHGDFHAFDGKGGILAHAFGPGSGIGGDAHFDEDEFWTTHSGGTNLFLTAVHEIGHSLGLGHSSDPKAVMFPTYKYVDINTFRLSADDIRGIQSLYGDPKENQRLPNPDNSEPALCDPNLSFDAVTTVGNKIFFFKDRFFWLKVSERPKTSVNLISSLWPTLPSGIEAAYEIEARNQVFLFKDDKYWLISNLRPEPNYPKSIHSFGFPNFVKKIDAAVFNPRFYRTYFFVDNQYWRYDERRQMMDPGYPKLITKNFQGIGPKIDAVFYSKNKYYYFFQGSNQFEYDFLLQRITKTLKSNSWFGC
measurement_type: IC50

>  <compound>
C[C@]1(CS(=O)(=O)N2CC=C(C#Cc3cnc(C4CC4)nc3)CC2)NC(=O)NC1=O [AZD1236]

>  <data_value>
6.1 nM

$$$$

---

tgt: UniProt P14780
Sequence (P14780 94-707): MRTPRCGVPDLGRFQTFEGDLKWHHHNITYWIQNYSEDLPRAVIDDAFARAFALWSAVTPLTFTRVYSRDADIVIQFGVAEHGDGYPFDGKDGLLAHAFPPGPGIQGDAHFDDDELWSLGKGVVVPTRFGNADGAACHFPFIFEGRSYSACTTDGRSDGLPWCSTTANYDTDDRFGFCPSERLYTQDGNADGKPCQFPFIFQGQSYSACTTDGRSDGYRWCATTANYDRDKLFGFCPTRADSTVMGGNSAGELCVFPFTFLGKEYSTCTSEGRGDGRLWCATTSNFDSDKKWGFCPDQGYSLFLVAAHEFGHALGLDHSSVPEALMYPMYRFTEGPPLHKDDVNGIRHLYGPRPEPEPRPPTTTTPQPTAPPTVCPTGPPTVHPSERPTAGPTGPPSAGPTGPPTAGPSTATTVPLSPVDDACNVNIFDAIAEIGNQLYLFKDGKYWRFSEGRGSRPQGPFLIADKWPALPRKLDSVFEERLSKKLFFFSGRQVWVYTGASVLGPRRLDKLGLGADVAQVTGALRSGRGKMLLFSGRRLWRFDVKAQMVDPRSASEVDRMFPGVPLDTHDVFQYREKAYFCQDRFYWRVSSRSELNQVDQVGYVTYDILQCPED

>  <smiles>
C[C@]1(CS(=O)(=O)N2CC=C(C#Cc3cnc(C4CC4)nc3)CC2)NC(=O)NC1=O

>  <IC50>
4.5 nM

$$$$

---

Tested on: LPS-stimulated primary microglia
test_summary: LPS-induced cytokine production by primary microglia (ELISA)
Format: cell-based, mouse
test_context: 10-500 ng/ml, LPS 10 ng/ml, 24 h
Counter-ions that a name gives are not always drawn.
measurement_type: TNF-α, IL-1β and IL-6 production by LPS-activated microglia

>  <molecule>
CNC(=O)[C@H](Cc1c[nH]c2ccccc12)NC(=O)[C@@H](CC(=O)NO)CC(C)C [GM6001, reference compound]

>  <data_value>
marginal effects

$$$$
>  <molecule>
COCCN1CCC(C(=O)NO)(S(=O)(=O)c2ccc(Oc3ccc(OC(F)(F)F)cc3)cc2)CC1 [SD2590, hydrochloride, reference compound]

>  <data_value>
marginal effects

$$$$
>  <molecule>
CCN(CC)Cc1cc(C)c(N(Cc2ccccc2)S(=O)(=O)c2ccc(OC)cc2)c(C(=O)NO)c1 [MMP-9 Inhibitor I, reference compound]

>  <data_value>
marginal effects

$$$$
